All figures here come from PubChem BioAssay (NCATS).

ASSAY_REMARKS: qHTS of pediatric cancer cell lines to identify multiple opportunities for drug repurposing: Primary screen for BT-37 cells (AID 1347094)
MEASUREMENT_CONTEXT: BT-37 viability, CellTiter-Glo luminescence, 48 h; series mostly up to 57.3 µM
Results filed as inconclusive are left out. Active and inactive are the calls of the source. The call rests on the fitted dose curve; in most records, active means well fitted cell-killing curve with a large enough effect; inconclusive means small, poorly fitted or top-dose-only effect; inactive means flat fitted curve, though single readings scatter.
The categories you may choose from are active, inactive

Below are worked cases with known answers.
MOLECULE	ANSWER_LABEL
C#CCN[C@@H]1CCc2ccccc21	inactive
O=S(=O)(O)CCS	inactive
CCOc1cc(N)c(Cl)cc1C(=O)NCC1CN(Cc2ccc(F)cc2)CCO1 (stereo not given)	inactive
CC1CC2C3CCC4=CC(=O)C=C[C@]4(C)[C@@]3(F)[C@@H](O)C[C@]2(C)[C@@]1(O)C(=O)CO (stereo not given in full)	inactive
C[C@]12C=CC(=O)C=C1CC[C@@H]1[C@@H]2C(=O)C[C@@]2(C)[C@H]1CC[C@]2(O)C(=O)CO	inactive

Exercise: Which outcome was entered for the molecule COc1nc(N)nc2c1ncn2[C@@H]1O[C@H](CO)[C@@H](O)[C@@H]1O in this test?
Solution: inactive

Exercise: // param item: CC1=NN(c2ccccc2)C(=O)C1 ; yields the recorded call
Solution: inactive

Exercise: Status in this test for Nc1nc(N)nc(-c2cc(Cl)ccc2Cl)n1 ?
Solution: inactive

Exercise: Lab log entry: COc1cc(NS(=O)(=O)c2ccc(N)cc2)nc(OC)n1 — outcome as called in the assay?
Solution: inactive

Exercise: Status in this test for CNS(=O)(=O)Cc1ccc2[nH]cc(CCN(C)C)c2c1 ?
Solution: inactive

Exercise: Which result was noted for this molecule in the test: COc1ccccc1OCC(O)COC(N)=O (stereo not given)
Solution: inactive

Exercise: Check the results log: what was the call for Cn1nnc2c(C(N)=O)ncn2c1=O ?
Solution: inactive

Exercise: Per the assay record, what outcome was assigned to O=NN(CCCl)C(=O)NC1CCCCC1 ?
Solution: inactive

Exercise: Hi, do you know how COc1cc2ncnc(Nc3cccc(Cl)c3)c2cc1OC came out in this test?
Solution: active

Exercise: For CC(N)C12CC3CC(CC(C3)C1)C2 (stereo not given) , which call appears in the assay record?
Solution: inactive

###

ASSAY_REMARKS: qHTS of pediatric cancer cell lines to identify multiple opportunities for drug repurposing: Primary screen for NB-EBc1 cells (AID 1347095); further: potency means the concentration at half of the fitted maximal effect
MEASUREMENT_CONTEXT: NB-EBc1 neuroblastoma viability, CellTiter-Glo luminescence, 48 h; series mostly up to 46 µM
Procedure: Drug repurposing or repositioning has been offered as a strategy for drug development in oncology programs. This approach has special potential for childhood cancers and other rare or orphan diseases, where the expected return on new drug development has been a disincentive to pharmaceuticals. […] We employed a titration-based paradigm (quantitative high-throughput screening or qHTS), where all compounds were tested at multiple concentrations for their effect on cell viability. […]
Records with an inconclusive call do not appear. The source made the active and inactive calls. The call rests on the fitted dose curve; in most records, active means well fitted cell-killing curve with a large enough effect; inconclusive means small, poorly fitted or top-dose-only effect; inactive means no such curve, though single readings can be large or run the other way.
REPORTED_ENDPOINT: Potency

Solved entries:
COMPOUND	EXPERIMENTAL_VALUE
Cc1oc(=O)oc1CN1CCN(c2cc3c(cc2F)c(=O)c(C(=O)O)c2n3C(C)S2)CC1 (stereo not drawn)	inactive
O=c1oc2c(O)c(O)cc3c(=O)oc4c(O)c(O)cc1c4c23	inactive
CC1=CC(=O)c2ccccc2C1=O	7.43 µM (active)
Cc1cccc(Nc2ccncc2S(=O)(=O)NC(=O)NC(C)C)c1	inactive
OCc1ccc(-c2nn(Cc3ccccc3)c3ccccc23)o1	inactive

Exercise: Give the reported Potency for this compound. CCN(C)C(=O)Oc1cccc([C@H](C)N(C)C)c1
Solution: inactive

Exercise: Give me measured Potency, please, for this compound: CCN[C@H]1C[C@H](C)S(=O)(=O)c2sc(S(N)(=O)=O)cc21
Solution: inactive

Exercise: Please report the measured Potency for Cc1noc(NS(=O)(=O)c2ccc(N)cc2)c1C
Solution: inactive

Exercise: Let me know recorded Potency for COc1nc(N)nc2c1ncn2[C@@H]1O[C@H](CO)[C@@H](O)[C@@H]1O , thanks.
Solution: inactive
